- TEST_TARGET: Ros1 enzyme (Homo sapiens, UniProt P08922)
- Construct: 0.5 μg/ml Ros1 enzyme
- Sequence (P08922 28-2347): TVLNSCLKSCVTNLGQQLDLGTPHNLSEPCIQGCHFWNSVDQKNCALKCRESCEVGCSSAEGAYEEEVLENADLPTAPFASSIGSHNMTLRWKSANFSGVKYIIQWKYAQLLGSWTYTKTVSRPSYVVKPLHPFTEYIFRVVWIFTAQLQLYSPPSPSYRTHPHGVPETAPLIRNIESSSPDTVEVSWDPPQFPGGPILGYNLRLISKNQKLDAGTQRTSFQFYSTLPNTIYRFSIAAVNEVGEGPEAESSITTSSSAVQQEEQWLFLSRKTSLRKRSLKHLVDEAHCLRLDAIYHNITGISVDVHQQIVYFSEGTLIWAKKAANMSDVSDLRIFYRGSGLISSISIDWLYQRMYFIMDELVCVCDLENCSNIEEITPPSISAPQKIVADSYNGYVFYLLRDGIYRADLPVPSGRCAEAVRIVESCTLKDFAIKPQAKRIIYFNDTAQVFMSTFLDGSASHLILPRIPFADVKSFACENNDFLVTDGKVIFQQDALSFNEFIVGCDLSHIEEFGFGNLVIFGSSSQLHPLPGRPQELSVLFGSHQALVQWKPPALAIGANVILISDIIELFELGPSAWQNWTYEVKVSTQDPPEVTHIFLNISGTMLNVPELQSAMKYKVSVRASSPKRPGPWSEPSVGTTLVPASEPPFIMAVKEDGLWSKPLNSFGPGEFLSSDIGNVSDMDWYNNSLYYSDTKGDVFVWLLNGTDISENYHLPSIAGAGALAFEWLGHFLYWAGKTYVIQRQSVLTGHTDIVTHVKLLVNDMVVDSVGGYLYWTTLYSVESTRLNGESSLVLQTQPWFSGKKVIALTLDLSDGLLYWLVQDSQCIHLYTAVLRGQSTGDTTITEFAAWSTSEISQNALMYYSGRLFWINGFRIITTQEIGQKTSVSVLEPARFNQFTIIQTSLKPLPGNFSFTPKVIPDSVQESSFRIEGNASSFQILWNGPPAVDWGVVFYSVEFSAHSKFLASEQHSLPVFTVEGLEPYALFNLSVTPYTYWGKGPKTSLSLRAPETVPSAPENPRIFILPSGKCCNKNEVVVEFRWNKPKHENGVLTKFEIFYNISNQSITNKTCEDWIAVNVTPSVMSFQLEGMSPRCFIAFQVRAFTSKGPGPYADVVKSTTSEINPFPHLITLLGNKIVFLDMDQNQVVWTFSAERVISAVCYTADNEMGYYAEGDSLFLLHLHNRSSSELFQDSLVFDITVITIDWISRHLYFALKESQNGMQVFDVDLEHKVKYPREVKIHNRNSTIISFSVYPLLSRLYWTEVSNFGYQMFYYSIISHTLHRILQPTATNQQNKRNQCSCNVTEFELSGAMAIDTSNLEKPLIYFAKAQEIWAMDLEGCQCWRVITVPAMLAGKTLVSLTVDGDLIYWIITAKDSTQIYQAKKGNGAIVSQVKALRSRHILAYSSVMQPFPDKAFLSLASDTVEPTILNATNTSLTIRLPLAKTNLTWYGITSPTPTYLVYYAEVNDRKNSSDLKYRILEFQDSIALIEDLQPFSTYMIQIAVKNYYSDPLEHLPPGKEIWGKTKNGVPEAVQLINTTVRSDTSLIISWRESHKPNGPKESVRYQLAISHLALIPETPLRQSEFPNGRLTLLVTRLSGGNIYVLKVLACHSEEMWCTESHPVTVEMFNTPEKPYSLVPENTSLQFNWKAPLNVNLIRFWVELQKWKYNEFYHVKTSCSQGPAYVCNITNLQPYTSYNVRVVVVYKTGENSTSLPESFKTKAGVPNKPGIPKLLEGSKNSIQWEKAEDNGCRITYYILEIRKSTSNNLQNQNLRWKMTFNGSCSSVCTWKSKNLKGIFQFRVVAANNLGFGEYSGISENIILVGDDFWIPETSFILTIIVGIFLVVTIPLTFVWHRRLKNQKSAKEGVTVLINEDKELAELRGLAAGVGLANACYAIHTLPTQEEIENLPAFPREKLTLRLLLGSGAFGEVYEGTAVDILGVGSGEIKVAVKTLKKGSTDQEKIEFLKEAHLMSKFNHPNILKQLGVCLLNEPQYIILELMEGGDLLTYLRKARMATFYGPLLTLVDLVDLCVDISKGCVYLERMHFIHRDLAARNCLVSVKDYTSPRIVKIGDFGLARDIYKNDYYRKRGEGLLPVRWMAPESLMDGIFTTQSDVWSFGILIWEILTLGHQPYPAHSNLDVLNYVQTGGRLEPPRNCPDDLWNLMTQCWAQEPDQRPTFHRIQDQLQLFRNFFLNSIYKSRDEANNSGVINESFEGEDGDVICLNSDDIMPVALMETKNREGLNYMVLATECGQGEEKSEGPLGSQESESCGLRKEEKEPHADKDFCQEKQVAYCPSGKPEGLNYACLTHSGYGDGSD
- MEASUREMENT_PROTOCOL: Ros1 enzymatic assay
- Type: biochemical
- DETAILS: Ros1 enzymatic assay; read-out: ROS1 pIC50 (converted)
QUANTITY_MEASURED: IC50 (nM)
Answers are plain numbers, in nM.

* COc1cc(-c2c(-c3ccnc(N)c3)nn3c2C(=O)N(C)CC3)ccc1OCc1ccc(C(C)C)cc1 | 7.94
* O=C1NCCn2nc(-c3ccncc3)c(-c3ccc(OCc4ccc(C5CC5)nc4)cc3)c21 | 79.4
* CNC(=O)CN1CCn2nc(-c3ccncc3)c(-c3ccc(OCc4ccc(C(C)C)cc4)cc3F)c2C1 | 63.1
* COc1cc(-c2c(-c3ccncc3)nn3c2C(=O)NCC3)cnc1OCc1ccc(C(C)C)cc1 | 6.31

Please give IC50, item by item, for the list that follows.
1. CC(C)c1ccc(COc2ccc(-c3c(-c4ccncc4F)nn4c3C(=O)NCC4)c(F)c2)cc1
2. CC(C)c1ccc(COc2ccc(-c3c(-c4ccncc4)nn4c3CN(CC(=O)N3CCCC3)CC4)cc2)cc1
3. CC(C)c1ccc(C2COc3cc(-c4c(-c5ccncc5)nn5c4C(=O)NCC5)ccc3O2)cc1 (stereo not drawn)
4. COc1cc(-c2c(-c3ccnc(N)c3)nn3c2C(=O)NCC3)ccc1OCc1ccc(C(C)C)cc1
5. CC(C)c1ccc(COc2ccc(-c3c(-c4ccncc4)nn4c3C(=O)NCC4)c(Cl)c2)cc1
6. CC(C)c1ccc(COc2ccc(-c3c(-c4ccncc4)nn4c3C(=O)N(C(C)C)CC4)cc2)cc1
7. O=C1NCCCn2nc(-c3ccncc3)c(-c3ccc(OCc4ccc(C5CC5)cc4)cc3)c21

10
501
25.1
7.94
7.94
39.8
398

Please give IC50, item by item, for the list that follows.
1. COCCN1CCn2nc(-c3ccncc3)c(-c3ccc(OCc4ccc(C(C)C)cc4)cc3)c2C1=O
2. CC(C)c1ccc(COc2ccc(-c3c(-c4ccncc4)nn4c3C(=O)NCC4)c(F)c2F)cc1
3. CC(C)c1ccc(C(C)Oc2ccc(-c3c(-c4ccncc4)nn4c3C(=O)NCC4)cc2)cc1 (stereo not drawn)

50.1
100
1000

Find the recorded IC50 belonging to `COCC(C)(C)c1ccc(COc2ccc(-c3c(-c4ccncc4)nn4c3C(=O)NCC4)cc2)cc1` and report it.
200

* * *

For each record, write down the corresponding melting point.

Example results:
• COCCc1cc(COc2ccc(-c3c(-c4ccncc4)nn4c3C(=O)NCC4)cc2)ccc1C(C)C = 208 °C
• CC(C)c1ccc(COc2ccc(-c3c(-c4ccncc4C#N)nn4c3C(=O)NCC4)cc2)cc1 = 225 °C
• CC(C)c1cc(F)c(COc2ccc(-c3c(-c4ccncc4)nn4c3C(=O)N(CC(O)CO)CC4)cc2)cc1F (stereo not shown) [Compound 99] = 183 °C
• CC(O)CN1CCn2nc(-c3ccncc3)c(-c3ccc(OCc4ccc(C(C)C)cc4)cc3)c2C1 (stereo not shown) [Compound 192] = 151 °C
• CC(C)c1ccc(COc2ccc(-c3c(-c4ccncc4)nn4c3C(=O)N(CC(=O)N(C)C)CC4)cc2)cc1 = 199 °C
• COc1cc(OCc2ccc(C(C)C)cc2)ccc1-c1c(-c2ccncc2)nn2c1C(=O)NCC2 = 276 °C

# next compound below
Find the recorded melting point belonging to `CC(C)(CO)c1ccc(COc2ccc(-c3c(-c4ccncc4)nn4c3C(=O)NCC4)cc2)cc1` and report it.
280 °C

* * *

For each record, write down the corresponding Ba/F3 Ros1 L2026M (-IL-3) pIC50.
- TEST_TARGET: Ba/F3 cells containing Ros1 with a mutation at the gatekeeper residue (L2026M) (Homo sapiens, UniProt P08922, L2026M, cells depend on it, form not given)
- Sequence (P08922 whole entry L2026M, form open): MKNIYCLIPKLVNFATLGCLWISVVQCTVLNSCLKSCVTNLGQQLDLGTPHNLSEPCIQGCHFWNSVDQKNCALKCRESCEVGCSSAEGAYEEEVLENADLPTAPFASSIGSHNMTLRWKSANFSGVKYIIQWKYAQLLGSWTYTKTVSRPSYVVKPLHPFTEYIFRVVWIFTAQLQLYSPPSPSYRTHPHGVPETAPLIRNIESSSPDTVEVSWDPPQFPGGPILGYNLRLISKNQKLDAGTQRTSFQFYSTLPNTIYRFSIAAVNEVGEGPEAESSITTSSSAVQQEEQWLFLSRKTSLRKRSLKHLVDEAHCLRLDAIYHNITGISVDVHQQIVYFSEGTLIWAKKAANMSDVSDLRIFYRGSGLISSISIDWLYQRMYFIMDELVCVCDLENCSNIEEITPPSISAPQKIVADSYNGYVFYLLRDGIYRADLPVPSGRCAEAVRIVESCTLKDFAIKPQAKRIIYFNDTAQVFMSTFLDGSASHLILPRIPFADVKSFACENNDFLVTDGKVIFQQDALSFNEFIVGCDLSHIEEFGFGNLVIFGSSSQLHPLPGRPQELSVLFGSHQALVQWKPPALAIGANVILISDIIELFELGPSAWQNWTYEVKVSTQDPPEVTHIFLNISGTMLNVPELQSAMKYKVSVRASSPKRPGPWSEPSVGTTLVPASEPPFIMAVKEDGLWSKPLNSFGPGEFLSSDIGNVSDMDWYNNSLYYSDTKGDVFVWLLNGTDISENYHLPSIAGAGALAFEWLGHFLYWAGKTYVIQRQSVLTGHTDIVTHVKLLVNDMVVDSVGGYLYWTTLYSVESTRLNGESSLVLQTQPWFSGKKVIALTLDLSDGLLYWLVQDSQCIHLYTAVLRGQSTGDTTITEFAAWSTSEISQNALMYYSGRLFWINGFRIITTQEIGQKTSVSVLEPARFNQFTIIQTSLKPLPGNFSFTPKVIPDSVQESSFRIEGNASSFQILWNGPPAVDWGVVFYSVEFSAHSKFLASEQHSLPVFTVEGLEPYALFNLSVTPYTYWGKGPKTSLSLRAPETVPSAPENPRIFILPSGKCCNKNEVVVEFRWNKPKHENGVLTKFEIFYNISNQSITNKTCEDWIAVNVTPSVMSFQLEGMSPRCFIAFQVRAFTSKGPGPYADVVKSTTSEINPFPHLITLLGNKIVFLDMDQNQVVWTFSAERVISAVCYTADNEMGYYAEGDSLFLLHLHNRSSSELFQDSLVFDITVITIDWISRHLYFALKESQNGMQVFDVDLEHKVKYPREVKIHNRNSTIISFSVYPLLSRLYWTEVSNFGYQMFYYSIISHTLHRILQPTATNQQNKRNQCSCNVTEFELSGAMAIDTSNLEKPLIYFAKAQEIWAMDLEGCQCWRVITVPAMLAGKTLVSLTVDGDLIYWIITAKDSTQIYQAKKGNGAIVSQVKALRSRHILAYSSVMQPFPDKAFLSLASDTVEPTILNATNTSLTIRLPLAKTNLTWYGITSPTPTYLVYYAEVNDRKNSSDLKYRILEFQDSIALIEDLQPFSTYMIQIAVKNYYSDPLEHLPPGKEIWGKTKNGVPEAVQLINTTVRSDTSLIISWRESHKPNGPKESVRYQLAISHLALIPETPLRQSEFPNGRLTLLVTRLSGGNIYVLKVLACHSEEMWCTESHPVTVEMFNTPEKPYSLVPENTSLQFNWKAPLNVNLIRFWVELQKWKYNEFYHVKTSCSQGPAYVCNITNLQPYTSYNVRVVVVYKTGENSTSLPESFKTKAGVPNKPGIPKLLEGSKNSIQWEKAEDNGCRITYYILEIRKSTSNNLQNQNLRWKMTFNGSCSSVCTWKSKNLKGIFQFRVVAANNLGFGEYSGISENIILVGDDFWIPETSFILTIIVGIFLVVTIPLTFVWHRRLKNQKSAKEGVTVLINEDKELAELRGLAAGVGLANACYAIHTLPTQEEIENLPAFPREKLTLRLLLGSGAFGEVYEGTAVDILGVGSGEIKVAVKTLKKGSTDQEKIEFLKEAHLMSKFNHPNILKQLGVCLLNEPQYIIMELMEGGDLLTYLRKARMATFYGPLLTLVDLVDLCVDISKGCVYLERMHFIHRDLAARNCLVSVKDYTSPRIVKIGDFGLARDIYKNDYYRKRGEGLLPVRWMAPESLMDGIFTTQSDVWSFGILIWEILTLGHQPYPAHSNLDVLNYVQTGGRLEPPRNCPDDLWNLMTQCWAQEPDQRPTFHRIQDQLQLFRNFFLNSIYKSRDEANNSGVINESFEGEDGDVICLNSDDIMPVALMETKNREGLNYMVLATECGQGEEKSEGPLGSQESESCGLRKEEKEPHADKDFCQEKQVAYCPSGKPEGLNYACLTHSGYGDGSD
- MEASUREMENT_PROTOCOL: Ba/F3-Ros1 cell proliferation assay, L2026M gatekeeper mutant
- Type: cell-based, murine
- DETAILS: without IL-3
- Procedure: Ba/F3-Ros1 Cell Proliferation Assay This assay was carried out with Ba/F3 cells containing three different versions of Ros1: the wild-type protein, protein with a mutation at the gatekeeper residue (L2026M), and protein with a mutation identified in a tumor from a patient that became resistant to crizotinib (Xalkori®) treatment (G2032R). Compounds were solubilized in 100% DMSO (dimethyl sulfoxide) and sprayed into polystyrene, tissue culture treated 384-well plates. […]
Give bare numbers.

- COCC(C)(C)c1ccc(COc2ccc(-c3c(-c4ccncc4)nn4c3C(=O)NCC4)cc2)cc1: 6.6

Please give Ba/F3 Ros1 L2026M (-IL-3) pIC50, item by item, for the list that follows.
1. CNC(=O)CN1CCn2nc(-c3ccncc3)c(-c3ccc(OCc4ccc(C(C)C)cc4)cc3F)c2C1
2. O=C1NCCn2nc(-c3ccncc3)c(-c3ccc(OCC#Cc4ccccc4)cc3)c21
3. CC(C)c1ccc(COc2ccc(-c3c(-c4ccncc4)nn4c3C(=O)N(CCO)CC4)cc2)cc1C#N

1: 7.5; 2: 6.4; 3: 7.2

* * *

- TEST_TARGET: Ba/F3 cells containing Ros1 with a mutation at the gatekeeper residue (L2026M) (Homo sapiens, UniProt P08922, L2026M, cells depend on it, form not given)
- MEASUREMENT_PROTOCOL: Ba/F3-Ros1 cell proliferation assay, L2026M gatekeeper mutant
- Format: cell-based, murine
- DETAILS: without IL-3
Label y for high-side Ba/F3 Ros1 L2026M (-IL-3) pIC50 (at or above 7) and n for low-side Ba/F3 Ros1 L2026M (-IL-3) pIC50 (below it).

• CC(C)c1ccc(COc2ccc(-c3c(-c4ccncc4)nn4c3C(=O)N(CCO)CC4)cc2)c(F)c1 = n
• CC(C)c1ccc(COc2cc(F)c(-c3c(-c4ccncc4)nn4c3C(=O)N(CCO)CC4)cc2F)cc1 = y
• CC(C)c1ccc(COc2ccc(-c3c(-c4ccncc4)nn4c3C(=O)NC(CO)C4)cc2)cc1 (stereo not drawn) = n
• COc1cc(-c2c(-c3ccncc3)nn3c2C(=O)NCC3)ncc1OCc1ccc(C(C)C)cc1 = n

Next item in the queue.
Does the compound CC(C)c1ccc(C2Oc3ccc(-c4c(-c5ccncc5)nn5c4C(=O)NCC5)cc3NC2=O)cc1 (stereo not drawn) have recorded Ba/F3 Ros1 L2026M (-IL-3) pIC50 that is 7 or more?
n

* * *

- TEST_TARGET: Ba/F3 cells containing Ros1 with a mutation at the gatekeeper residue (L2026M) (Homo sapiens, UniProt P08922, L2026M, cells depend on it, form not given)
- MEASUREMENT_PROTOCOL: Ba/F3-Ros1 cell proliferation assay, L2026M gatekeeper mutant
- Format: cell-based, murine
- DETAILS: without IL-3
QUANTITY_MEASURED: Ba/F3 Ros1 L2026M (-IL-3) pIC50
Numbers only.

Example results:
• CC(C)c1ccc(COc2ccc(-c3c(-c4ccncc4F)nn4c3C(=O)NCC4)c(F)c2)cc1 [Compound 152] = 8.1
• CC(C)c1ccc(COc2ccc(-c3c(-c4ccncc4)nn4c3C(=O)N(CC3(C)COC3)CC4)cc2)cc1 [Compound 54] = 7.2
• CC(C)c1ccc(COc2ccc(-c3c(-c4ccncc4)nn4c3C(=O)NCC4)c(F)n2)cc1 [Compound 74] = 7.5
• CC(C)c1ccc(COc2cc(F)c(-c3c(-c4ccncc4)nn4c3C(=O)NCC4)cn2)cc1 [Compound 73] = 7.4
• CC(C)c1ccc(COc2ccc(-c3c(-c4ccncc4)nn4c3C(=O)N(C)CC4)cn2)cc1 [Compound 211] = 7.3
• COc1cc(-c2c(-c3ccncc3)nn3c2C(=O)NCC3)ccc1OCc1ccc(C(C)C)cc1 [Compound 32] = 8.0

# next molecule below
Find the recorded Ba/F3 Ros1 L2026M (-IL-3) pIC50 belonging to CC(C)c1ccc(COc2ccc(-c3c(-c4ccncc4)nn4c3C(=O)N(CC(O)CO)CC4)cc2)cc1 (stereo not shown) [Compound 43] and report it.
7.3

* * *

For each record, write down the corresponding melting point.
Give the value; after it, write the unit.

Example results:
- CC(C)c1ccc(COc2ccc(-c3c(-c4ccncc4)nn4c3C(=O)NCC4)c(F)c2)cc1: 271 °C
- CN1CCn2nc(-c3ccncc3)c(-c3ccc(OCc4ccc(C5CC5)nc4)cc3)c2C1=O: 175 °C
- CC(C)c1ccc(COc2ccc(-c3c(-c4ccncc4Cl)nn4c3C(=O)NCC4)cc2)cc1: 207 °C

Find the recorded melting point belonging to CC(C)c1ccc(COc2ccc(-c3c(-c4ccncc4)nn4c3C(=O)NC(CO)C4)cc2)cc1 (stereo not shown) and report it.
254 °C

* * *

- TEST_TARGET: Ba/F3 cells containing Ros1 wild-type protein (Homo sapiens, UniProt P08922, cells depend on it, form not given)
- Construct: The background only speaks of 'a number of different unrelated proteins' and names SLC34A2-ROS1 for HCC78 cells
- Sequence (P08922 whole entry, stated change not applied): as the sequence (P08922 whole entry L2026M, form open) above, with M2026L counted along it
- MEASUREMENT_PROTOCOL: Ba/F3-Ros1 cell proliferation assay, wild-type Ros1
- Assay type: cell-based, murine
- DETAILS: without IL-3
QUANTITY_MEASURED: BaF3-ROS1-IL3 pIC50
One number for each entry.

- CC(C)c1ccc(COc2ccc(-c3c(-c4ccncc4)nn4c3C(=O)N(CCO)CC4)c(F)c2F)cc1 [Compound 20]: 6.9
- CC(C)c1ccc(COc2c(F)cc(-c3c(-c4ccncc4)nn4c3C(=O)NCC4)cc2F)cc1 [Compound 15]: 7.5
- CNCCc1cc(COc2ccc(-c3c(-c4ccncc4)nn4c3C(=O)N(C)CC4)cc2)ccc1C(C)C [Compound 236]: 7.6
- CC(C)c1ccc(COc2ccc(-c3c(-c4ccncc4)nn4c3C(=O)NCC4)cc2)cc1OCCO [Compound 89]: 7.6
- Cc1cc(-c2c(-c3ccncc3)nn3c2C(=O)N(CCO)CC3)ccc1OCc1ccc(C(C)C)cc1 [Compound 31]: 6.3

Please give BaF3-ROS1-IL3 pIC50, item by item, for the list that follows.
1. CC(C)c1ccc(COc2ccc(-c3c(-c4ccncc4)nn4c3C(=O)N(CCCN)CC4)cc2)cc1 [Compound 58]
2. CNCC(=O)N1CCn2nc(-c3ccncc3)c(-c3ccc(OCc4ccc(C(C)C)cc4)cc3)c2C1 [Compound 182]
3. CC(C)c1ccc(COc2ccc(-c3c(-c4ccncc4)nn4c3C(=O)NCC4)c(Cl)c2)cc1 [Compound 24]
4. CC(C)c1cccc(COc2ccc(-c3c(-c4ccncc4)nn4c3C(=O)NCC4)cc2)c1 [Compound 110]
5. O=C1NC2(CNC2)Cn2nc(-c3ccncc3)c(-c3ccc(OCc4ccc(C5CC5)cc4)cc3)c21 [Compound 183]
6. CC(C)c1ccc(COc2ccc(-c3c(-c4ccncc4)nn4c3C(=O)N(C(C)C)CC4)cc2)cc1 [Compound 49]
7. O=C1c2c(-c3ccc(OCc4ccc(C5CC5)nc4)cc3)c(-c3ccncn3)nn2CCN1CCO [Compound 169]
8. CC(O)CN1CCn2nc(-c3ccncc3)c(-c3ccc(OCc4ccc(C(C)C)cc4)cc3)c2C1 (stereo not shown) [Compound 192]

7.3
5.7
7.8
6.9
6.0
7.3
6.2
6.9

Please give BaF3-ROS1-IL3 pIC50, item by item, for the list that follows.
1. CC(C)c1ccc(COc2ccc(-c3c(-c4ccncc4)nn4c3C(=O)NCC4)c(F)c2)cc1 [Compound 6]
2. CC(C)c1ccc(COc2ccc(-c3c(-c4ccncc4F)nn4c3C(=O)NCC4)cc2)cc1 [Compound 151]
3. CC(C)c1ccc(COc2ccc(-c3c(-c4ccncc4)nn4c3CNCC4)cc2)cc1 [Compound 173]

1. 7.9
2. 7.4
3. 6.1
